# Test system: LXRa homodimer (NR concentration 270 nM)
# METHOD_DESCRIPTION: PBM binding z-score (relative to random genomic background probes); higher = stronger binding; sequences stand for … in GC…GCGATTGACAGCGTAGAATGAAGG
So basically every entry gets a class from its PBM binding z-score, ranges being lo (below -0.4), mid (-0.4 to below 0.4), hi (0.4 or more)

Known results for sequences:
| CONSTRUCT_SEQUENCE | MEASURED_ON | CLASS_NAME |
| --- | --- | --- |
| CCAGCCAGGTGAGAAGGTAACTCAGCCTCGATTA | LXRa homodimer (NR concentration 270 nM) | mid |
| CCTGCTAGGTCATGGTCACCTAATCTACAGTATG | LXRa homodimer (NR concentration 270 nM) | mid |
| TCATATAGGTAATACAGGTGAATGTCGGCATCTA | LXRa homodimer (NR concentration 270 nM) | hi |
| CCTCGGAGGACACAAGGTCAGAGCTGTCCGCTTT | LXRa homodimer (NR concentration 270 nM) | hi |
| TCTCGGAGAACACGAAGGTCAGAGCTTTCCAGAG | LXRa homodimer (NR concentration 270 nM) | mid |
| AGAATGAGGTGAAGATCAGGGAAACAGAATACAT | LXRa homodimer (NR concentration 270 nM) | mid |

Switching to the query record.
[Q] Any idea which band `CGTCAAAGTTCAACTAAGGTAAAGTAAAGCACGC` is in?
[A] hi

###

# Test system: RXRa homodimer (NR concentration 180 nM)
# METHOD_DESCRIPTION: PBM binding z-score (relative to random genomic background probes); higher = stronger binding; sequences stand for … in GC…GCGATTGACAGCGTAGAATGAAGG
ASSAY_ENDPOINT: PBM binding z-score
Please respond with just the number, no unit label.

# example entries with known answers
| CONSTRUCT_SEQUENCE | PBM binding z-score |
| --- | --- |
| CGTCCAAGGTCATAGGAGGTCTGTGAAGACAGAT | 6.11 |
| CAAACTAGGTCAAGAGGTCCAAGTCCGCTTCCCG | 2.65 |
| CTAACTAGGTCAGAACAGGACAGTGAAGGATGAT | 1.07 |
| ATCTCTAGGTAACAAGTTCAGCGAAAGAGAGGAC | 1.27 |
| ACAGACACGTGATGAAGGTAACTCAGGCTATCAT | 0.38 |

[Q] Endpoint output: PBM binding z-score of `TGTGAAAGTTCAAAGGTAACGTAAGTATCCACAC` . Value?
[A] 7

###

# Test system: PPARg DBDmut:RXRa IVT, anti-PPARg (DBD mutation: PPARg1 K132A/R137A, NR concentration 270 nM, RXRa partner concentration 90 nM)
# METHOD_DESCRIPTION: PBM binding z-score (relative to random genomic background probes); higher = stronger binding; sequences stand for … in GC…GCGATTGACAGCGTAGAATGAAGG
ASSAY_ENDPOINT: PBM binding z-score
Please respond with just the number, no unit label.

| CONSTRUCT_SEQUENCE | OBSERVED |
| --- | --- |
| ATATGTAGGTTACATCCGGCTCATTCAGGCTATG | 2.85 |
| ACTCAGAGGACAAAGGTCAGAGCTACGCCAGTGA | -0.0394 |
| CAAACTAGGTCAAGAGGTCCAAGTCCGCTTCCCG | 1.57 |
| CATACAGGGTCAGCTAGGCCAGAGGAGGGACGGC | 1.18 |
| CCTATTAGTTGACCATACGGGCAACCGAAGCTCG | 0.889 |

Could you now look at the following sequence, please?
[Q] Endpoint output: PBM binding z-score of `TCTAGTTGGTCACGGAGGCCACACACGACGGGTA` . Value?
[A] 0.779

Reference source: the supplement of paper PMC6555819
